Test system: HeLa Kyoto;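 further: HeLa Kyoto cells arrested at G1/S by double thymidine block, proteins quantified by TMT10plex mass spectrometry in mild NP-40 versus SDS extracts, three biological replicates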
Experiment: solubility in G1/S (NP-40 vs SDS abundance) (log2 ratio); higher = more soluble
Conditions: cell cycle stage: G1/S
Decide by solubility in G1/S (log2): equal to or exceeding 0.4 means satisfied, less means not satisfied.

sequence_chain="MATKGGTVKAASGFNAMEDAQTLRKAMKGLGTDEDAIISVLAYRNTAQRQEIRTAYKSTIGRDLIDDLKSELSGNFEQVIVGMMTPTVLYDVQELRRAMKGAGTDEGCLIEILASRTPEEIRRISQTYQQQYGRSLEDDIRSDTSFMFQRVLVSLSAGGRDEGNYLDDALVRQDAQDLYEAGEKKWGTDEVKFLTVLCSRNRNHLLHVFDEYKRISQKDIEQSIKSETSGSFEDALLAIVKCMRNKSAYFAEKLYKSMKGLGTDDNTLIRVMVSRAEIDMLDIRAHFKRLYGKSLYSFIKGDTSGDYRKVLLVLCGGDD [ANXA4]" assigned_label=satisfied
sequence_chain="MAAPEAPPLDRVFRTTWLSTECDSHPLPPSYRKFLFETQAADLAGGTTVAAGNLLNESEKDCGQDRRAPGVQPCRLVTMTSVVKTVYSLQPPSALSGGQPADTQTRATSKSLLPVRSKEVDVSKQLHSGGPENDVTKITKLRRENGQMKATDTATRRNVRKGYKPLSKQKSEEELKDKNQLLEAVNKQLHQKLTETQGELKDLTQKVELLEKFRDNCLAILESKGLDPALGSETLASRQESTTDHMDSMLLLETLQEELKLFNETAKKQMEELQALKVKLEMKEERVRFLEQQTLCNNQVNDLTTALKEMEQLLEM [KNSTRN]" assigned_label="not satisfied"
sequence_chain="MPVKGGTKCIKYLLFGFNFIFWLAGIAVLAIGLWLRFDSQTKSIFEQETNNNNSSFYTGVYILIGAGALMMLVGFLGCCGAVQESQCMLGLFFGFLLVIFAIEIAAAIWGYSHKDEVIKEVQEFYKDTYNKLKTKDEPQRETLKAIHYALNCCGLAGGVEQFISDICPKKDVLETFTVKSCPDAIKEVFDNKFHIIGAVGIGIAVVMIFGMIFSMILCCAIRRNREMV [CD9]" assigned_label="not satisfied"

## Input Could you verify whether the entry MAHYKAADSKREQFRRYLEKSGVLDTLTKVLVALYEEPEKPNSALDFLKHHLGAATPENPEIELLRLELAEMKEKYEAIVEENKKLKAKLAQYEPPQEEKRAE [MYCBP] shows solubility in G1/S (log2) of no less than 0.4?
## Output not satisfied

## Input Same question for MRHLPYFCRGQVVRGFGRGSKQLGIPTANFPEQVVDNLPADISTGIYYGWASVGSGDVHKMVVSIGWNPYYKNTKKSMETHIMHTFKEDFYGEILNVAIVGYLRPEKNFDSLESLISAIQGDIEEAKKRLELPEHLKIKEDNFFQVSKSKIMNGH [RFK] please.
## Output satisfied

## Input What about this sequence? MSFLFSSRSSKTFKPKKNIPEGSHQYELLKHAEATLGSGNLRQAVMLPEGEDLNEWIAVNTVDFFNQINMLYGTITEFCTEASCPVMSAGPRYEYHWADGTNIKKPIKCSAPKYIDYLMTWVQDQLDDETLFPSKIGVPFPKNFMSVAKTILKRLFRVYAHIYHQHFDSVMQLQEEAHLNTSFKHFIFFVQEFNLIDRRELAPLQELIEKLGSKDR [MOB1A]
## Output satisfied
